Known Bliss excess of a selection of compounds
Test system: IM-9 (Non-Cancerous);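 also: after 72 h of two-drug dosing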
protocol: Bliss excess, mean over the matrix (fraction); higher = more synergy

Examples from the recorded data:
[[record]]
compound = "CC1(C)CCC(CN2CCN(c3ccc(C(=O)NS(=O)(=O)c4ccc(NCC5CCOCC5)c([N+](=O)[O-])c4)c(Oc4cnc5[nH]ccc5c4)c3)CC2)=C(c2ccc(Cl)cc2)C1 [Venetoclax] + C=CCn1c(=O)c2cnc(Nc3ccc(N4CCN(C)CC4)cc3)nc2n1-c1cccc(C(C)(C)O)n1 [AZD1775] (first compound max 1 µM, partner max 1 µM)"
experimental_readout = "Bliss excess"
endpoint_value = 0.0228

[[record]]
compound = "Cc1c2c(nn1C)CSCc1cc(n(C)n1)CSc1cc(c3ccccc3c1)OCCCc1c(C(=O)O)n(C)c3c-2c(Cl)ccc13 [AZD5991] + C[C@@H](Nc1cc(F)cc(F)c1)c1cc(C(=O)N(C)C)cc2c(=O)cc(N3CCOCC3)oc12 [AZD8186] (first compound max 1 µM, 7x7, partner max 3 µM)"
experimental_readout = "Bliss excess"
endpoint_value = -0.0376

[[record]]
compound = "Cc1c2c(nn1C)CSCc1cc(n(C)n1)CSc1cc(c3ccccc3c1)OCCCc1c(C(=O)O)n(C)c3c-2c(Cl)ccc13 [AZD5991] + C=CCn1c(=O)c2cnc(Nc3ccc(N4CCN(C)CC4)cc3)nc2n1-c1cccc(C(C)(C)O)n1 [AZD1775] (first compound max 1 µM, partner max 1 µM)"
experimental_readout = "Bliss excess"
endpoint_value = -0.054


Attention now turns to another entry.
Respond only with Bliss excess recorded for C=CCn1c(=O)c2cnc(Nc3ccc(N4CCN(C)CC4)cc3)nc2n1-c1cccc(C(C)(C)O)n1 [AZD1775] + C[C@@H]1COCCN1C2=NC(=NC(=C2)C3(CC3)[S@](=N)(=O)C)C4=C5C=CNC5=NC=C4 [AZD6738] (first compound max 1 µM, partner max 10 µM) 0.0274

These entries and their values trace back to the supplement of paper PMC11061612.
